The entries below are paired with their reported composite z-score.
EXPERIMENTAL_TARGET: Albumin (Bos taurus)
PROCEDURE_TEXT: compounds binding labelled BSA control protein – biochemical, small-molecule microarray, Alexa647 label, 635/667 nm fluorescence, artefact control for SMM control protein annotation, profiling panel (AID 1118);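 note: score merges 667 nm emission intensity and signal-to-noise per printed compound spot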
CONDITION_NOTES: BSA-A647 binding, fluorescence 635 nm, higher = more signal

Example results:
CC(C)CNC(=O)[C@@]1(c2ccc([N+](=O)[O-])cc2)CC(=O)N(C(C)C)[C@@H]1c1ccc(CO)cc1    0.1
COc1ccc([Si](C)(C)[C@@H]2[C@@H](CCO)O[C@]3(C(=O)N(Cc4ccccc4)c4ccc(N5C(=O)COc6ccccc65)cc43)[C@H]2C)cc1    0.187
O=C1C2C=CC(C(O)c3cccc4ccccc34)N(Nc3ccccc3)C2C(=O)N1c1ccccc1 (configuration not stated)    0.571
COC(=O)[C@@]1(Cc2ccccc2)[C@H]2c3cc(C(=O)N4CCCC4)n(Cc4ccc(OC(F)(F)F)cc4)c3C[C@H]2CN1C(=O)c1ccccc1    0.963
NC(=O)NCC#Cc1ccc2c(c1)[C@]1(C(=O)N2)[C@H](c2ccc(OCCO)cc2)N2[C@H](c3ccccc3)[C@H](c3ccccc3)OC(=O)[C@H]2[C@@H]1C(=O)N1CCN(c2ncccn2)CC1    -0.17
COc1ccc([Si](C)(C)[C@@H]2[C@@H](CC(=O)N(CCO)Cc3ccccc3)O[C@]3(C(=O)N(Cc4ccc(N5CCOC5=O)cc4)c4ccccc43)[C@H]2C)cc1    -0.697

Q. Tell me composite z-score reported for COC(=O)[C@@]1(Cc2ccccc2)[C@H]2c3cc(C(=O)N(C)C)n(Cc4ccc(O)c(OC)c4)c3C[C@H]2CN1C(=O)c1ccccc1
A. 0.955

Q. Tell us which composite z-score value is on record for O=C1O[C@H](c2ccccc2)[C@H](c2ccccc2)N2[C@H]1[C@@H](C(=O)N1CCN(c3ncccn3)CC1)[C@]1(C(=O)Nc3ccc(C#CCCO)cc31)[C@H]2c1ccc(OCCO)cc1
A. 0.612

====

EXPERIMENTAL_TARGET: Alpha-bungarotoxin (Bungarus multicinctus) (UniProt P60615)
Sequence (P60615 whole entry, looked up): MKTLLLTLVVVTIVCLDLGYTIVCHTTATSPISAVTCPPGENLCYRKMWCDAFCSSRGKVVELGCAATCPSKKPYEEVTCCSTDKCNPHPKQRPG
PROCEDURE_TEXT: compounds binding labelled alpha-BTX control protein – biochemical, small-molecule microarray, Alexa647 label, 635/667 nm fluorescence, artefact control for SMM control protein annotation, profiling panel (AID 1117)
CONDITION_NOTES: alpha-BTX-A647 binding fluorescence, higher = more signal
MEASURED_PROPERTY: composite z-score
Answer with a bare number; do not write a unit.

Sample records with composite z-score:
O=C1C[C@@](C(=O)O)(c2ccc([N+](=O)[O-])cc2)[C@@H](c2ccc(CO)cc2)N1CC12CC3CC(CC(C3)C1)C2    1.2
CC(C)C[C@@H]1NC(=O)[C@@]23C(=O)N[C@@H](Cc4ccccc4)C2[C@H](C)[C@@]2(C)O[C@H]2C3/C=C/C/C=C\CNC(=O)[C@@H]2CCCN2C1=O (stereo partly drawn)    -0.442
CN(C)C(=O)[C@@]1(CCC(=O)OC(C)(C)C)COC(c2ccc(OCCCO)cc2)=N1    0.728
COc1ccc(C#Cc2ccc3c(c2)[C@]2(C(=O)N3)[C@H](c3ccc(OCCO)cc3)N3[C@H](c4ccccc4)[C@H](c4ccccc4)OC(=O)[C@H]3[C@@H]2C(=O)N2CCN(c3ncccn3)CC2)cc1    0.235
C=CCOC(=O)[C@H]1[C@@H]2C(=O)O[C@@H](c3ccccc3)[C@@H](c3ccccc3)N2[C@@H](c2ccc(OCCOC(=O)[C@H]3C[C@H]4C(=O)N[C@@H](CCCCN(C)C)C(=O)N4[C@H]3c3ccc(O)cc3)cc2)[C@]12C(=O)Nc1ccccc12    0.0397

Turning to the following molecule.
Q. Entry CCOC(=O)C[C@H]1[C@H](OC(=O)c2cc3ccccc3oc2=O)[C@@H](NC(=O)c2ccc3ccccc3n2)c2cc(OCCCO)ccc2N1C(=O)c1ccc2ccccc2n1 needs its composite z-score filled in; supply it.
A. 0.214
